Just for reference, patent US4886884A is where these values come from.

run-description: Solubility in different solvents
Type: physicochemical
study-conditions: acetic acid, organic solvent or mixture; read-out: Solubility in Acetic acid
quantity-measured: solubility

Q: Which solubility value belongs to COc1cc2oc3c(c(=O)c2cc1OC)C(=O)c1c(ccc2cc4c(c(OC(C)=O)c12)C(=O)N1CCOC1(C)C4)C3=O (stereo not drawn) ?
Result: 3000 µg/mL

Q: Which solubility value belongs to COc1cc2oc3c(O)c4ccc5cc6c(c(O)c5c4c(O)c3c(=O)c2cc1OC)C(=O)N1CCOC1(C)C6 (stereo not drawn) [Cervinomycin A1, reference compound] ?
Result: 23 µg/mL

Q: Which solubility value belongs to COc1cc2oc3c(OC(C)=O)c4ccc5cc6c(c(OC(C)=O)c5c4c(OC(C)=O)c3c(=O)c2cc1OC)C(=O)N1CCOC1(C)C6 (stereo not drawn) ?
Result: > 25000 µg/mL

====

run-description: Solubility in different solvents
Assay type: physicochemical
study-conditions: methanol, organic solvent or mixture; read-out: Solubility in Methanol
I'd be grateful if you could share measured solubility for these entries.
Numeric only. Scale: µg/mL

Q: Which solubility value belongs to COc1cc2oc3c(O)c4ccc5cc6c(c(O)c5c4c(O)c3c(=O)c2cc1OC)C(=O)N1CCOC1(C)C6 (stereo not drawn) [Cervinomycin A1, reference compound] ?
Result: 0.3

Q: Which solubility value belongs to COc1cc2oc3c(OC(C)=O)c4ccc5cc6c(c(OC(C)=O)c5c4c(OC(C)=O)c3c(=O)c2cc1OC)C(=O)N1CCOC1(C)C6 (stereo not drawn) ?
Result: 1400

Q: Which solubility value belongs to COc1cc2oc3c(c(=O)c2cc1OC)C(=O)c1c(ccc2cc4c(c(OC(C)=O)c12)C(=O)N1CCOC1(C)C4)C3=O (stereo not drawn) ?
Result: 300

====

run-description: in vivo
study-conditions: mouse, po
quantity-measured: LD50 (mg/kg)
Numeric only. Scale: mg/kg

Q: Which LD50 value belongs to COc1cc2oc3c(c(=O)c2cc1OC)C(=O)c1c(ccc2cc4c(c(OC(C)=O)c12)C(=O)N1CCOC1(C)C4)C3=O (stereo not shown) [Monoacetyl Cervinomycin A2, monoacetyl Cervinomycin A2] ?
Result: 1800
